Data origin, for the record: ChEMBL document CHEMBL1649420

target: Neutrophil collagenase (Homo sapiens); details: at 1 mM;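 further: recombinant human MMP8 enzyme, percent inhibition read after 30 min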
Exercise: state measured inhibition for each of the molecules provided.

Answer with the recorded inhibition of Cc1ccc(S(N)(=O)=O)cc1 only.
9%

Answer with the recorded inhibition of O=C(O)c1cccc(Br)n1 only.
1%

Answer with the recorded inhibition of Cc1cc(=O)[nH]c(=S)[nH]1 only.
31%

Answer with the recorded inhibition of Cc1ccc(C(=O)O)c(O)c1 only.
16%

Answer with the recorded inhibition of O=C(O)c1ccc(O)c(O)c1 only.
13%

Answer with the recorded inhibition of O=c1cc[nH]c(=S)[nH]1 only.
37%

Answer with the recorded inhibition of O=C(O)c1ccc2ccccc2n1 only.
29%

Answer with the recorded inhibition of CS(=O)(=O)Nc1cccc2cccnc12 only.
75%

Answer with the recorded inhibition of c1ccc(CNCc2ccccn2)nc1 only.
100%

Answer with the recorded inhibition of Cc1cccc(C(=O)O)n1 only.
3%

Answer with the recorded inhibition of Nc1cccc2cccnc12 only.
61%

Answer with the recorded inhibition of Cc1cccc(C(=O)O)c1O only.
18%

Answer with the recorded inhibition of Cc1cc(O)nc(C)n1 only.
11%

Answer with the recorded inhibition of O=C(O)c1cccc[n+]1[O-] only.
21%

Answer with the recorded inhibition of O=C(O)c1cccc(O)c1O only.
10%

Answer with the recorded inhibition of CC(=O)C(C)C(C)=O only.
3%

Answer with the recorded inhibition of O=C(O)c1nccc2ccccc12 only.
13%

Answer with the recorded inhibition of Oc1cccc2cccnc12 only.
92%

Answer with the recorded inhibition of O=C(O)c1cccc(O)n1 only.
20%

Answer with the recorded inhibition of C1CNCCNCCN1 only.
104%

Answer with the recorded inhibition of O=C(O)c1nc(Cl)ccc1Cl only.
18%

Answer with the recorded inhibition of O=C1C=C(O)C(=O)c2ccccc21 only.
86%

Answer with the recorded inhibition of O=C(O)c1ccccc1O only.
14%

Answer with the recorded inhibition of Cc1cc(O)nc(O)n1 only.
11%
